# Tested on: Mexican bean beetle
# method_notes: Topical application, Mexican bean beetle
# Format: in vivo, Epilachna varivestis
# recorded_conditions: MBB, 5000 ng/insect, 24 hours

compound	Topical % Kill @ 5000 ng/insect, %
Cc1c(COC(=O)[C@H]2[C@@H](C=C(Br)Br)C2(C)C)cccc1-c1cccs1 (relative stereo)	100
Cc1c(COC(=O)[C@@H]2[C@H](C=C(Cl)Cl)C2(C)C)cccc1-c1cnccn1 (relative stereo)	90
Cc1c(COC(=O)[C@H]2[C@@H](C=C(Cl)C(F)(F)F)C2(C)C)cccc1-c1cnccn1 (relative stereo)	100
Cc1c(COC(=O)C2C(C=C(Cl)Cl)C2(C)C)cccc1-c1ccco1 (mixture of isomers)	100
CC1(C)[C@H](C=C(Cl)Cl)[C@@H]1C(=O)OCc1cccc(-c2ccsc2)c1 (relative stereo)	100
Cc1c(COC(=O)[C@H]2[C@@H](C=C(Cl)Cl)C2(C)C)cccc1-c1ccco1 (relative stereo)	100
CC1(C)[C@H](C=C(Cl)Cl)[C@@H]1C(=O)OCc1cccc(-c2ccco2)c1 (relative stereo)	30
CC1(C)[C@H](C=C(Cl)C(F)(F)F)[C@@H]1C(=O)OCc1cccc(-c2ccco2)c1 (relative stereo)	90
CC1(C)[C@H](C(=O)OCc2cccc(-c3ccc(Br)o3)c2)[C@@H]1C=C(Cl)Cl (relative stereo)	35
Cc1c(COC(=O)[C@@H]2[C@H](C=C(Cl)Cl)C2(C)C)cccc1-c1cccs1	100
Cc1c(COC(=O)[C@H]2[C@@H](C=C(Cl)C(F)(F)F)C2(C)C)cccc1-c1ccco1 (relative stereo)	100
Cc1c(COC(=O)[C@H]2[C@@H](C=C(Cl)C(F)(F)F)C2(C)C)cccc1-c1cccs1 (relative stereo)	100
Cc1c(COC(=O)[C@H]2[C@@H](C=C(Cl)C(F)(F)F)C2(C)C)cccc1-c1ccccn1 (relative stereo)	100

###

# Tested on: tobacco budworm
# method_notes: Topical application, tobacco budworm
# Type: in vivo, Heliothis virescens
# recorded_conditions: TBW
# Protocol: Topical Application: The compounds of this invention were tested for insecticidal activity against various insect species selected from southern armyworm (Spodoptera eridania), Mexican bean beetle, (Epilachna varivestis), milkweed bug (Oncopeltus fasciatus), and cabbage looper (Tricoplusia ni) by applying to the second or third dorsal thoracic segment of each larvae a one microliter droplet containing 5 mg/mL of test compound in acetone (5000 ng/insect). […]
Reported Topical LD50 is given for each of the following molecules.

molecule	Topical LD50
Cc1c(COC(=O)[C@H]2[C@@H](C=C(Cl)C(F)(F)F)C2(C)C)cccc1-c1cccs1 (relative stereo)	43 ng/insect
Cc1c(COC(=O)[C@H]2[C@@H](C=C(Cl)Cl)C2(C)C)cccc1-c1cccs1 (relative stereo)	107 ng/insect
Cc1c(COC(=O)[C@H]2[C@@H](C=C(Cl)Cl)C2(C)C)cccc1-c1ccco1 (relative stereo)	92 ng/insect
Cc1c(COC(=O)[C@@H]2[C@H](C=C(Cl)Cl)C2(C)C)cccc1-c1cccs1	38 ng/insect

###

# System: Mexican bean beetle
# method_notes: Topical application, Mexican bean beetle
# Format: in vivo, Epilachna varivestis
# recorded_conditions: MBB

compound	measurement_target	Topical LD50 (ng/insect)
Cc1c(COC(=O)[C@@H]2[C@H](C=C(Cl)Cl)C2(C)C)cccc1-c1cnccn1 (relative stereo)	Mexican bean beetle	269
CC1(C)[C@H](C=C(Cl)C(F)(F)F)[C@@H]1C(=O)OCc1cccc(-c2ccco2)c1 (relative stereo)	Mexican bean beetle	510
Cc1c(COC(=O)[C@H]2[C@@H](C=C(Cl)C(F)(F)F)C2(C)C)cccc1-c1cccs1 (relative stereo)	Mexican bean beetle	7
Cc1c(COC(=O)[C@H]2[C@@H](C=C(Br)Br)C2(C)C)cccc1-c1cccs1 (relative stereo)	Mexican bean beetle	20
Cc1c(COC(=O)[C@H]2[C@@H](C=C(Cl)Cl)C2(C)C)cccc1-c1ccco1 (relative stereo)	Mexican bean beetle	72
CC1(C)[C@H](C=C(Cl)Cl)[C@@H]1C(=O)OCc1cccc(-c2cccs2)c1 (relative stereo)	Mexican bean beetle	471
Cc1c(COC(=O)[C@H]2[C@@H](C=C(Cl)C(F)(F)F)C2(C)C)cccc1-c1cnccn1 (relative stereo)	Mexican bean beetle	93

###

# Test system: southern armyworm
# method_notes: Topical application, southern armyworm
# Assay type: in vivo, Spodoptera eridania
# recorded_conditions: SAW
# Description: Topical Application: The compounds of this invention were tested for insecticidal activity against various insect species selected from southern armyworm (Spodoptera eridania), Mexican bean beetle, (Epilachna varivestis), milkweed bug (Oncopeltus fasciatus), and cabbage looper (Tricoplusia ni) by applying to the second or third dorsal thoracic segment of each larvae a one microliter droplet containing 5 mg/mL of test compound in acetone (5000 ng/insect). […]
Reported Topical LD50 is given for each of the following compounds.

compound	measurement_target	Topical LD50
Cc1c(COC(=O)[C@@H]2[C@H](C=C(Cl)Cl)C2(C)C)cccc1-c1cnccn1 (relative stereo)	southern armyworm	2387 ng/insect
Cc1c(COC(=O)[C@H]2[C@@H](C=C(Cl)C(F)(F)F)C2(C)C)cccc1-c1ccccn1 (relative stereo)	southern armyworm	60 ng/insect
Cc1c(COC(=O)[C@H]2[C@@H](C=C(Br)Br)C2(C)C)cccc1-c1cccs1 (relative stereo)	southern armyworm	55 ng/insect
CC1(C)[C@H](C=C(Cl)C(F)(F)F)[C@@H]1C(=O)OCc1cccc(-c2ccco2)c1 (relative stereo)	southern armyworm	366 ng/insect

###

# Test system: southern armyworm
# method_notes: Topical application, southern armyworm
# Assay type: in vivo, Spodoptera eridania
# recorded_conditions: SAW
Simple rule here: Topical LD50 less than 100 ng/insect is yes, otherwise no.

molecule	classification
Cc1c(COC(=O)[C@H]2[C@@H](C=C(Cl)Cl)C2(C)C)cccc1-c1cccs1 (relative stereo)	yes
Cc1c(COC(=O)[C@H]2[C@@H](C=C(Cl)Cl)C2(C)C)cccc1-c1ccco1 (relative stereo)	yes
Cc1c(COC(=O)[C@H]2[C@@H](C=C(Cl)C(F)(F)F)C2(C)C)cccc1-c1cccnc1 (relative stereo)	no
Cc1c(COC(=O)[C@H]2[C@@H](C=C(Cl)C(F)(F)F)C2(C)C)cccc1-c1ccco1 (relative stereo)	yes
Cc1c(COC(=O)[C@H]2[C@@H](C=C(Cl)C(F)(F)F)C2(C)C)cccc1-c1cnccn1 (relative stereo)	no
CC1(C)C(C=C(Cl)Cl)C1C(=O)OCc1cccc(-c2cccs2)c1 (mixture of isomers)	no
Cc1c(COC(=O)C2C(C=C(Cl)Cl)C2(C)C)cccc1-c1ccco1 (mixture of isomers)	no
CC1(C)[C@H](C=C(Cl)Cl)[C@@H]1C(=O)OCc1cccc(-c2ccco2)c1 (relative stereo)	no
CC1(C)[C@H](C=C(Cl)Cl)[C@@H]1C(=O)OCc1cccc(-c2ccsc2)c1 (relative stereo)	yes
CC1(C)[C@H](C=C(Cl)Cl)[C@@H]1C(=O)OCc1cccc(-c2cccs2)c1 (relative stereo)	yes
Cc1c(COC(=O)[C@@H]2[C@H](C=C(Cl)Cl)C2(C)C)cccc1-c1cccs1	yes
Cc1c(COC(=O)[C@H]2[C@@H](C=C(Cl)C(F)(F)F)C2(C)C)cccc1-c1cccs1 (relative stereo)	yes
CC1(C)[C@H](C(=O)OCc2cccc(-c3ccc(Br)o3)c2)[C@@H]1C=C(Cl)Cl (relative stereo)	no
CC1(C)[C@@H](C=C(Cl)Cl)[C@@H]1C(=O)OCc1cccc(-c2cccs2)c1 (relative stereo)	no
Cc1c(COC(=O)[C@H]2[C@H](C=C(Cl)Cl)C2(C)C)cccc1-c1cccs1 (relative stereo)	no

###

Reported Topical LD50 is given for each of the following compounds.
# Tested on: cabbage looper
# method_notes: Topical application, cabbage looper
# Assay type: in vivo, Tricoplusia ni
# recorded_conditions: CL
# Protocol: Topical Application: The compounds of this invention were tested for insecticidal activity against various insect species selected from southern armyworm (Spodoptera eridania), Mexican bean beetle, (Epilachna varivestis), milkweed bug (Oncopeltus fasciatus), and cabbage looper (Tricoplusia ni) by applying to the second or third dorsal thoracic segment of each larvae a one microliter droplet containing 5 mg/mL of test compound in acetone (5000 ng/insect). […]

compound	unit_string	Topical LD50
Cc1c(COC(=O)[C@H]2[C@@H](C=C(Cl)Cl)C2(C)C)cccc1-c1cccs1 (relative stereo)	ng/insect	0.5
CC1(C)[C@H](C=C(Cl)Cl)[C@@H]1C(=O)OCc1cccc(-c2cccs2)c1 (relative stereo)	ng/insect	1275
CC1(C)C(C=C(Cl)Cl)C1C(=O)OCc1cccc(-c2cccs2)c1 (mixture of isomers)	ng/insect	3649
